target: RSV F protein of subtype A strain A2, on virus (respiratory syncytial virus subtype A …, UniProt P03420 26-574); assay: cell-based or functional assay
ASSAY METRIC: Neut IC50 (ug/ml) subtype A (µg/mL)
Provide only the numeric value, understood in µg/mL.

Provide measured Neut IC50 (ug/ml) subtype A value, entry: ADI-15570 (antibody, V domains shown) VH: QVQLVESGGGVVQPGKSLRLSCAASGFTFSSYPMHWVRQAPGAGLEWMAVISYDGANKYYEDSLKGRFTISRDNSKDTLFLQMNNLRPEDTAVYYCARGRTSHINTPETKWGQGTLVTVSS VL: EIVLTQSPTLVSASTGDTVTISCRMSQGINGYLAWFQKKPGKAPDLLIYGASTLQDGVPSRFSGSGSGTDFTLTISRLQSEDLATYYCQQYYSLPWTFGQGTKVDIK
13.3

Provide measured Neut IC50 (ug/ml) subtype A value, entry: ADI-15615 (antibody, V domains shown, IgG; also called Antibody Number 180) VH: EVQLVETGGGLVKPGGSLRLSCAGSGFTFSSYTLNWVRQAPGKGLEWVSSISSSSTYIYYADSVKGRFTISRDNAKNSLHLQMNSLRAEDTAVYYCARADYDRSVYHLNWLDPWGQGTLVTVSS VL: QPVLTQPPSVSGAPGQRVTISCTGSSSNIGAGYDVHWYQQLPGAAPKLLIYGNTNRPSGVPDRFSGSKSGTSASLAITGLQADDEADYYCQSYDSSLSGTWVFGGGTKLTVL
0.977

Provide measured Neut IC50 (ug/ml) subtype A value, entry: ADI-15562 (antibody, V domains shown) VH: QVQLVQSGAEVKKPGDSLKISCKNAGHTSRIYWIAWVRQMPAKGLEYMGIIFPGDSDTRYSPSFRGQVTISADRSIRTAYLQLSSLKASDTGIYYCATQGLEGAFDYWGQGTLVTVSS VL: DIRLTQSPSSLSASVGDRVTITCQASQDISNQLNWYQQKPGTAPKLLIYDASFLQTGVPSRFSGSGSGTHFTFTITSLQPEDFATYFCQHYDSFPIFTFGPGTKLEIK
0.01

Provide measured Neut IC50 (ug/ml) subtype A value, entry: ADI-15591 (antibody, V domains shown, IgG) VH: EVQLLESGGGLVKPGGSLRLSCAASGFTFSSYGMHWVRQAPGKGLEWVSSITAGSSYMDYADSVKGRFTVSRDNGKNSLYLQMNSLRAEDTAVYFCAREDYDSRVYYLKWFDPWGQGTLVTVSS VL: QSVLTQPPSVSGAPGQRVTISCTGSSSNIGTGYDVHWYQQLPGSAPKLLIYGNSNRPSGVPDRFSGSKSGTSASLAITGLQAEDEADYYCQSYDSSRSGYVFGTGTKLTVL
0.086
